TARGET_OR_SYSTEM: HisTag-PCNA (human, UniProt P12004 1-261)
Sequence (P12004 whole entry): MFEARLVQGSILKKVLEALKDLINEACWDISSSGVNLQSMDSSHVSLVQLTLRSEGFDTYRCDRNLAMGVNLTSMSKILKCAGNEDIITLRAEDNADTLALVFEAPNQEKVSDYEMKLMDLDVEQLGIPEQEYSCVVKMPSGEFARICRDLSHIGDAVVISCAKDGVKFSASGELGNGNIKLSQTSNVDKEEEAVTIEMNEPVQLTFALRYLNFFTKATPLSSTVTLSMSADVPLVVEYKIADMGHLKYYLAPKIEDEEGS
PROTOCOL_NOTES: ITC
MEASURED_ATTRIBUTE: Kd (µM)

BINDER	MEASURED_ATTRIBUTE	RECORDED_MEASUREMENT
CATGCTTCCCCAGGGAGATGCCTATGGTCCCCGCGTAGGTGGCAGCTCA (structured_DNA) [alpha-PCNA aptamer (A1 -30/3')]	Kd	2
